Give measured IC50 for each item. Keep answers brief.
- Study target: human CRTH2 (Homo sapiens, UniProt Q9Y5Y4)
- Construct: expressed in transfected cells
- Sequence (Q9Y5Y4 whole entry): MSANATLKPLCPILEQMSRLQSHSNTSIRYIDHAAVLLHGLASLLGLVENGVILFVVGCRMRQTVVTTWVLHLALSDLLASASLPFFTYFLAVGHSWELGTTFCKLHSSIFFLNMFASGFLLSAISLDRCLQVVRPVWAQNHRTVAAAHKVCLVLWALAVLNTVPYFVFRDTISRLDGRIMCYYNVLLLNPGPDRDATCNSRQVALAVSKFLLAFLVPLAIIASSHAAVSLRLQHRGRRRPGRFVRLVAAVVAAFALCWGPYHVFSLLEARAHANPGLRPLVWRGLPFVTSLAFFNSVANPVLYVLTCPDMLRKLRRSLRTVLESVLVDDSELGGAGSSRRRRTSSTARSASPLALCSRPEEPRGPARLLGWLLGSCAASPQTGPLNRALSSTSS
- Run description: [35S]GTPγS binding assay (SPA) on membranes from CHO-K1 cells stably expressing human CRTH2, stimulated with 60 nM DHK-PGD2
- Format: biochemical
- Settings: potency class symbols; Table 2; read-out: CRTH2 hGTPγS IC50

Inquiry: Look up human CRTH2 (Homo sapiens, UniProt Q9Y5Y4) data: IC50 of CN(Cc1cc(-c2cccc(C#N)c2)c(OCC(=O)O)cc1Cl)S(=O)(=O)c1ccc(F)c(Cl)c1 [Example 42] , then report it.
Reply text: < 100 nM

Inquiry: State, for human CRTH2 (Homo sapiens, UniProt Q9Y5Y4), measured IC50 of the compound listed here: CN(Cc1ccc(OCC(=O)O)c(-c2cccc(C#N)c2)c1)S(=O)(=O)c1ccc(Cl)c(F)c1 [Example 65]
Reply text: < 100 nM

Inquiry: Report its IC50 with human CRTH2 (Homo sapiens, UniProt Q9Y5Y4) as the test system: Cc1ccc(-c2cc(CN(C)S(=O)(=O)c3ccc(F)cc3)ccc2OCC(=O)O)cc1S(C)(=O)=O [Example 84]
Reply text: < 100 nM

Inquiry: Give IC50 only, for CN(Cc1ccc(OCC(=O)O)c(-c2ccn3ccnc3c2)c1)S(=O)(=O)c1ccc(F)cc1 [Example 128] , using human CRTH2 (Homo sapiens, UniProt Q9Y5Y4) data.
Reply text: 100 to 1000 nM

Reference source: patent US8822467B2
